# IC (TGI) listing for each entry below
System: OVCAR-5
assay.comment: NCI-60 anticancer screen (SRB; single dose and five doses)
applied.conditions: Homo sapiens, OVCAR-5, read-out: TGI
Entry rule: numbers only, all in µM.

Would you please look over these solved cases?
Cc1[nH]c(=S)sc1C(=O)/C=C/c1ccc(Cl)cc1 [2f]    33.1
Cc1[nH]c(=S)sc1C(=O)/C=C/c1cccc([N+](=O)[O-])c1 [2h]    13.8

COc1cc(/C=C/C(=O)c2sc(=S)[nH]c2C)cc(OC)c1OC [2p] yielded IC (TGI) of 15.1

---

Test system: SN12C
Lab note: anything with GI50 below 3 µM is marked criterion met; values at 3 µM or higher are marked criterion not met.

Cc1[nH]c(=S)sc1C(=O)/C=C/c1cccc([N+](=O)[O-])c1 [2h]    criterion met
Cc1[nH]c(=S)sc1C(=O)/C=C/c1ccc(Cl)cc1 [2f]    criterion not met
Cc1[nH]c(=S)sc1C(=O)/C=C/c1ccc(F)cc1 [2c]    criterion not met

API: query returns whether the molecule falls strictly under 3 µM in GI50. Query: Cc1[nH]c(=S)sc1C(=O)/C=C/c1cccc(Cl)c1 [2e]
criterion met

API: query returns whether the molecule falls strictly under 3 µM in GI50. Query: COc1cc(/C=C/C(=O)c2sc(=S)[nH]c2C)cc(OC)c1OC [2p]
criterion met

API: query returns whether the molecule falls strictly under 3 µM in GI50. Query: Cc1[nH]c(=S)sc1C(=O)/C=C/c1ccc([N+](=O)[O-])cc1 [2i]
criterion not met

API: query returns whether the molecule falls strictly under 3 µM in GI50. Query: Cc1[nH]c(=S)sc1C(=O)/C=C/c1ccc(Br)cc1 [2g]
criterion not met
